Quick reference for drug sensitivity score among some compounds
tested on: NK-92 (IL-2 2.5 ng/mL); assay: drug sensitivity score (DSS) (DSS units); higher = more sensitive; extreme values may be limits of the assay; conditions: 72 h
Form rule: numeric answer, no unit written next to it.

Field: example entries. Status: answers known.
>  <compound>
CC(C)NC[C@@H](C(=O)N1CCN(c2ncnc3c2[C@H](C)C[C@H]3O)CC1)c1ccc(Cl)cc1 [GDC-0068] (max concentration tested 10000 nM)

>  <measured on>
NK-92 (IL-2 2.5 ng/mL)

>  <experimental value>
1.5

$$$$
>  <compound>
Cc1cc([C@@H](C)Nc2ccccc2C(=O)O)c2nc(N3CCOCC3)cc(=O)n2c1 [AZD-6482] (max concentration tested 2500 nM)

>  <measured on>
NK-92 (IL-2 2.5 ng/mL)

>  <experimental value>
3.55

$$$$
>  <compound>
Nc1nc(OCc2cc(Br)cs2)c2[nH]cnc2n1 [Lomeguatrib] (max concentration tested 10000 nM)

>  <measured on>
NK-92 (IL-2 2.5 ng/mL)

>  <experimental value>
0

$$$$
>  <compound>
C[C@]12O[C@H](C[C@]1(O)CO)n1c3ccccc3c3c4c(c5c6ccccc6n2c5c31)CNC4=O [Lestaurtinib] (max concentration tested 1000 nM)

>  <measured on>
NK-92 (IL-2 2.5 ng/mL)

>  <experimental value>
15

$$$$

Kindly consider the entry below.
Need drug sensitivity score of Cn1ncnc1[C@H]1c2n[nH]c(=O)c3cc(F)cc(c23)N[C@@H]1c1ccc(F)cc1 [Talazoparib] (max concentration tested 1000 nM) , thanks.
12

----------
system: normal primary NK cells, pool 1 (3 donors) (IL-2 2.5 ng/mL); experiment: percent inhibition of viability; higher = more inhibition; details: 72 h; 1 nM;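 also: normalised to DMSO-only wells as negative and benzethonium chloride as positive control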
observed property: percent inhibition of viability (%)
The reply should contain only the number, in %.

Field: example entries. Status: answers known.
>  <compound>
C[C@]12O[C@H](C[C@]1(O)CO)n1c3ccccc3c3c4c(c5c6ccccc6n2c5c31)CNC4=O [Lestaurtinib] (max concentration tested 1000 nM)

>  <units>
%

>  <percent inhibition of viability>
-1.5

$$$$
>  <compound>
CCc1cnn2c(NCc3ccc[n+]([O-])c3)cc(N3CCCC[C@H]3CCO)nc12 [Dinaciclib] (max concentration tested 1000 nM)

>  <units>
%

>  <percent inhibition of viability>
3.36

$$$$

Need percent inhibition of viability of Cn1ncnc1[C@H]1c2n[nH]c(=O)c3cc(F)cc(c23)N[C@@H]1c1ccc(F)cc1 [Talazoparib] (max concentration tested 1000 nM) , thanks.
-5.65

Need percent inhibition of viability of CN1CCN(c2nc(C3=C(c4c[nH]c5ccccc45)C(=O)NC3=O)c3ccccc3n2)CC1 [Sotrastaurin] (max concentration tested 10000 nM) , thanks.
-5.39

Need percent inhibition of viability of C=CCn1c(=O)c2cnc(Nc3ccc(N4CCN(C)CC4)cc3)nc2n1-c1cccc(C(C)(C)O)n1 [MK1775] (max concentration tested 10000 nM) , thanks.
-14.7

Need percent inhibition of viability of C[C@@H](C(=O)O)c1ccc(-c2ccccc2)c(F)c1 [Tarenflurbil] (max concentration tested 10000 nM) , thanks.
2

Need percent inhibition of viability of CCCc1cc(C)[nH]c(=O)c1CNC(=O)c1cc(-c2ccnc(N3CCN(C)CC3)c2)cc2c1cnn2C(C)C [GSK343] (max concentration tested 10000 nM) , thanks.
2.11

Need percent inhibition of viability of CCn1c(C(=O)N(C2CC2)C2CC2)cc2c3c(ncn3C)c(Nc3cc(C)n(C)n3)nc21 (max concentration tested 10000 nM) , thanks.
-3.85
